Just for reference, paper PMC12040169 is where these values come from.

- test-details: in vitro
- test-parameters: human, hela cells, % viability
measure: viability at 28.5 h, 10 µM (%)
Your answer is read as %, so omit the unit and give the number.

{"molecule": "CCN(CC)C(=O)C1CCCN(C(=O)NCCc2c[nH]c3ccccc23)C1 (stereo not drawn)", "val": 99.8}

Ask: Given the entry COc1ccc(OC(C)C(=O)Nc2ccc(C(=O)O)cc2)cc1 (stereo not drawn) , report its measured viability at 28.5 h, 10 µM.
Reply: 101

Ask: Similarly, "COc1ccc(CCNC(=S)N2CCN(c3ccccn3)CC2)cc1OC" ?
Reply: 94.5

---

- test-details: in vitro
- test-parameters: human, hela cells, % viability
measure: viability at 28.5 h, 10 µM (%)
Answer format: numeric, % implied, no suffix.

{"compound": "O=C(CSCc1ccc(Cl)c(Cl)c1)Nc1ncccn1", "measure": "viability at 28.5 h, 10 µM", "unit-spec": "%", "val": 89.7}
{"compound": "Cc1sc2nc(C)n(C3CCN(C(=O)C(C)C)CC3)c(=O)c2c1C", "measure": "viability at 28.5 h, 10 µM", "unit-spec": "%", "val": 88.7}

Now take the following compound into account.
Ask: Fill blank: measured viability at 28.5 h, 10 µM of the compound CCC1CCCCN1C(=O)c1cc(Br)c(Br)s1 (stereo not drawn) is ____.
Reply: 92.5
